species on record: Homo sapiens; experiment: Selectivity ratio of Ki for human recombinant adenosine A1 receptor to Ki for human recombinant adenosine receptor A2a
Labelling field: enter true if recorded Ratio Ki is less than 200. Enter false if it equals or exceeds that cut-off.

[Q] Take the compound CCCCc1nc(N)c2nc(-n3nccn3)n(C)c2n1 and say whether its Ratio Ki is less than 200.
[A] true

[Q] Please check: Ratio Ki for COCCOc1ccc(N2CCN(CCn3cnc4c3nc(N)n3nc(-c5ccccn5)nc43)CC2)cc1 , strictly under 200 or not?
[A] true

[Q] Is Ratio Ki strictly under 200 for the entry Cc1ccc2cc(CCn3ncc4c3nc(N)n3nc(-c5ccco5)nc43)ccc2n1 ?
[A] true

[Q] Find out if reported Ratio Ki for COc1ccc(C2CCOCC2)c2oc(NC(=O)c3ccnc(N4CCOCC4)c3)nc12 is less than 200
[A] false

[Q] Hi there! Is Ratio Ki for CC(O)CCc1nc(N)c2nc(-n3nccn3)n(C)c2n1 (configuration not stated) below 200, do you know?
[A] true

[Q] In the record for COC1CCN(c2cccc(-c3cc(NC(C)=O)nc(-n4nc(C)cc4C)n3)n2)CC1 , is Ratio Ki less than 200?
[A] true

[Q] Is it true that Ratio Ki reported for CN(CCN1CCN(c2ccc(F)cc2F)CC1)c1cc2nc(-c3cccc(C#N)c3)nn2c(N)n1 is less than 200?
[A] false
